# Experimental protocol: qHTS assay for identifying genotoxic compounds that show differential cytotoxicity against isogenic chicken DT40 cell lines with known DNA damage response pathways - Rev3 mutant cell line (AID 743014); further: nearly all actives have a fitted effect of over 55% in size
# Conditions: chicken DT40 Rev3-/- viability, CellTiter-Glo, 40 h; series mostly up to 68.4 µM
Inconclusive results are not listed. Activity calls are given as the source filed them. The call rests on the fitted dose curve; in most records, active means well fitted cell-killing curve with a large enough effect in the repeat runs; inconclusive means weak or mixed curves, or effect the other way; inactive means no such curve, though single readings can be large or run the other way.
Outcome codes: 1.0 = active, 0.0 = inactive

Compound	Cat
CCN(CC)CCO[C@H]1CC[C@@]2(C)C(=CC[C@@H]3[C@@H]2CC[C@]2(C)C(=O)CC[C@@H]32)C1	1.0
Cc1ccccc1-n1c(C)nc2ccccc2c1=O	1.0
CC(=O)OC1CN2CCC1CC2 (stereo unspecified)	0.0
c1csc(C2(N3CCCCC3)CCCCC2)c1	0.0
CO/C=C(/C(=O)OC)c1ccccc1Oc1cc(Oc2ccccc2C#N)ncn1	1.0
c1ccccc1	0.0
NCC[C@H](O)C(=O)N[C@@H]1C[C@H](N)[C@@H](O[C@H]2O[C@H](CN)[C@@H](O)[C@H](O)[C@H]2N)[C@H](O[C@@H]2O[C@H](CO)[C@@H](O)[C@H]2O)[C@H]1O	0.0
CCCCCCC(=O)O[C@H]1CC[C@H]2[C@@H]3CC[C@H]4CC(=O)C=C(C)[C@]4(C)[C@H]3CC[C@]12C	0.0
C[C@]12CCC(=O)C[C@@H]1CC[C@@H]1[C@@H]2CC[C@@]2(C)[C@H]1CC[C@]2(C)O	0.0
O=C1CN(O)C(c2ccccc2)=c2cc(Cl)ccc2=N1	0.0
C[C@]12CC[C@H](OS(=O)(=O)O)CC1=CC[C@@H]1[C@@H]2CC[C@]2(C)C(=O)CC[C@@H]12	0.0
CCc1cc(OC)c(C[C@@H](C)N)cc1OC	1.0
CCCN1CCC[C@H](c2cccc(O)c2)C1	0.0
Cc1ccc(N(SC(F)(Cl)Cl)S(=O)(=O)N(C)C)cc1	1.0
C[C@]12CC[C@@H]3c4ccc(OC(=O)N(CCCl)CCCl)cc4CC[C@H]3[C@@H]1CC[C@@H]2OP(=O)(O)O	0.0
CCCSc1cc(OC)c(CCN)cc1OC	1.0
c1ccc2c(c1)Sc1ccccc1N2C[C@@H]1CN2CCC1CC2	0.0
O=c1c2ccccc2[se]n1-c1ccccc1	1.0
O=C1C(I)=CC(=C(c2cc(I)c(O)c(I)c2)c2ccccc2C(=O)O)C=C1I	0.0
CN=C1CN(O)C(c2ccccc2)=c2cc(Cl)ccc2=N1	0.0
C[C@]12CC[C@H]3[C@@H](CCC4=C(O)C(=O)CC[C@@H]43)[C@@H]1CC[C@@H]2OC(=O)CCC1CCCC1	0.0
Cc1ccccc1-n1c(CF)nc2ccc(N)cc2c1=O	0.0
O=C(O)/C=C\C(=O)O	0.0
[H+].[H+].[Hg+2].[O-]B([O-])[O-].[c-]1ccccc1	1.0
COc1ccc2c3c1O[C@H]1C(=O)CC[C@H]4[C@@H](C2)N(C)CC[C@]314	0.0
OCC(c1ccc(Cl)cc1)c1ccc(Cl)cc1	1.0
CN[C@]1(c2ccccc2Cl)CCCCC1=O	0.0
CCC(C)(S(=O)(=O)CC)S(=O)(=O)CC	0.0
COc1ccc(C(c2ccc(OC)cc2)C(Cl)(Cl)Cl)cc1	1.0
C[C@]12CC[C@H]3[C@@H](CCC4=C(Cl)C(=O)CC[C@@]43C)[C@@H]1CC[C@@H]2O	1.0
C=CC[C@]1(O)CC[C@H]2[C@@H]3CCC4=CCCC[C@@H]4[C@H]3CC[C@@]21C	0.0
CN[C@@H]1C[C@@H](c2ccc(Cl)c(Cl)c2)c2ccccc21	1.0
CC(C)[C@H]1C(=O)N2CCC[C@H]2[C@]2(O)O[C@](NC(=O)[C@@H]3C[C@@H]4c5cccc6[nH]cc(c56)C[C@H]4N(C)C3)(C(C)C)C(=O)N12	1.0
N#CC1(N2CCCCC2)CCCCC1	0.0
NC(=O)CN1CC(O)CC1=O (stereo unspecified)	0.0
O=C(CS(=O)C(c1ccccc1)c1ccccc1)NO (stereo unspecified)	0.0
c1ccc(C2(c3ccccc3)CC2C2=NCCN2)cc1 (stereo unspecified)	0.0
CC(C)(O)[C@@H]1[C@H]2OC(=O)[C@@H]1[C@]1(O)C[C@H]3O[C@]34C(=O)O[C@H]2[C@]14C	0.0
Nc1ccc([N+](=O)[O-])cc1	1.0
O=C(OCCN1CCCCC1)C(O)(c1ccccc1)c1ccccc1	0.0
CCC/C=C/C=C/C(=O)O[C@H]1/C(=C/C(=O)OC)C[C@H]2C[C@H]([C@@H](C)O)OC(=O)C[C@H](O)C[C@@H]3C[C@H](OC(C)=O)C(C)(C)[C@](O)(C[C@@H]4C/C(=C/C(=O)OC)C[C@H](/C=C/C(C)(C)[C@]1(O)O2)O4)O3	1.0
